target: recombinant STAT3 (Homo sapiens); assay: Biolayer interferometry (BLI) assay; details: His-tagged STAT3 on SSA biosensors, QW12 5.2 to 333 μM, read-out: binding affinity (KD) to STAT3
Sequence (P40763 whole entry, species assumed): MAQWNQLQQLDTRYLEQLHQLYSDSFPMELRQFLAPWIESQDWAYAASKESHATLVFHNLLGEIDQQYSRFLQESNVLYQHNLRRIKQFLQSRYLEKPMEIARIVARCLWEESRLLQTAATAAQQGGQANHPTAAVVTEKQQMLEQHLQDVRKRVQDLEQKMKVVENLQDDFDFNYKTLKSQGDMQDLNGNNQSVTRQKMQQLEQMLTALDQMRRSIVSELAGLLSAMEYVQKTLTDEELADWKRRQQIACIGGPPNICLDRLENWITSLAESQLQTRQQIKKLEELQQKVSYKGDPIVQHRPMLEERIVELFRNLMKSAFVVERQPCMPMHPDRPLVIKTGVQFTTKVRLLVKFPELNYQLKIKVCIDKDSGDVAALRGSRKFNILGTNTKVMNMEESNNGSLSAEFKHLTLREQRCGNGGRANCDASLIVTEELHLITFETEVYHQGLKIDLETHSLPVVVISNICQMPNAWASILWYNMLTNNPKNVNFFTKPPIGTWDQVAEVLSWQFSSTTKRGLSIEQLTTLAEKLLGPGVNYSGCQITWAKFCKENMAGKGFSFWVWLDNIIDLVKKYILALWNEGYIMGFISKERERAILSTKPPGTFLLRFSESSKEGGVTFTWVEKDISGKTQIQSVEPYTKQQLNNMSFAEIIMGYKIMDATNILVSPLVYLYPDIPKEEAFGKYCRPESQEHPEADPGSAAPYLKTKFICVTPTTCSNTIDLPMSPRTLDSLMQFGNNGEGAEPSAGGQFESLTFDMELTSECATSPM
readout.label: Kd (µM)
Hi! Could you send only the number? It should be in µM, unit omitted.

Lookup: Which measured Kd belongs to COc1cc(-c2ccc(/C=N/NC(=O)c3ccc(O)cc3)o2)c(OC)cc1-c1ccc2nccnc2c1 [QW12] , tested on recombinant STAT3 (Homo sapiens)?
Found: 67.3

---

system: HCT116 cells; test: CCK-8 antiproliferation assay, HCT116; format: cell-based; conditions: Homo sapiens, HCT-116; 20 μM, 48 h, CCK-8, mean ± SD; read-out: Inhibition Rate (%) at 20 μM, HCT116
Below is a list of entries, each paired with its recorded inhibition at 20 µM value.
Expressed in %, but write only the number.

Completed entries (count: 8):
COc1cc(-c2ccc(/C=N/NC(=O)c3ccccc3)o2)c(OC)cc1-c1cnc2ccccc2n1; 17.8
COc1cc(-c2cc(OC)c3ccccc3c2OC)c(OC)cc1-c1ccc(/C=N/NC(=O)c2cccc(C)c2)o1; 2.26
COc1cc(-c2ccc(/C=N/NC(=O)c3ccccn3)o2)c(OC)cc1-c1cnc2ccccc2n1; 16.5
COc1cc(-c2cc(OC)c3ccccc3c2OC)c(OC)cc1-c1ccc(/C=N/NC(=O)c2ccccn2)o1; 6.58
COc1cc(-c2ccc(/C=N/NC(=O)c3ccncc3)o2)c(OC)cc1-c1cnc2ccccc2n1; 30.6
COc1cc(-c2ccc(/C=N/NC(=O)c3cccnc3)o2)c(OC)cc1-c1ccc2nccnc2c1; 39.9
COc1cc(-c2ccc(/C=N/NC(=O)c3cccc(C)c3)o2)c(OC)cc1-c1cnc2ccccc2n1; 2.18
COc1cc(-c2ccc(/C=N/NC(=O)c3ccc(-c4ccccc4)cc3)o2)c(OC)cc1-c1ccc2nccnc2c1; 41.5

Lookup: What does the data say about its inhibition at 20 µM? Entry: `COc1cc(-c2cc(OC)c3ccccc3c2OC)c(OC)cc1-c1ccc(/C=N/NC(=O)c2ccc(F)cc2)o1`
Found: 4.69

Lookup: Which inhibition at 20 µM value belongs to `COc1cc(-c2ccc(/C=N/NC(=O)c3ccc(F)cc3)o2)c(OC)cc1-c1cnc2ccccc2n1` ?
Found: 15.3

Lookup: Any idea what inhibition at 20 µM was measured for `COc1cc(-c2cc(OC)c3ccccc3c2OC)c(OC)cc1-c1ccc(/C=N/NC(=O)c2cccnc2)o1` ?
Found: 4.61

Lookup: Name the reported inhibition at 20 µM value associated with the compound `COc1cc(-c2ccc(/C=N/NC(=O)c3ccccn3)o2)c(OC)cc1-c1ccc2nccnc2c1`
Found: 30.5

Lookup: Which inhibition at 20 µM value is on record for `COc1cc(-c2ccc(/C=N/NC(=O)c3ccc(O)cc3)o2)c(OC)cc1-c1cnc2ccccc2n1` ?
Found: 30.7

Lookup: Sample `COc1cc(-c2cc(OC)c3ccccc3c2OC)c(OC)cc1-c1ccc(/C=N/NC(=O)c2ccncc2)o1` — what was its inhibition at 20 µM?
Found: 4.46

Lookup: inhibition at 20 µM lookup needed for `COc1cc(-c2ccc(/C=N/NC(=O)c3ccncc3)o2)c(OC)cc1-c1ccc2nccnc2c1` , thanks.
Found: 23.2

Lookup: Quick check: inhibition at 20 µM of `COc1cc(-c2ccc(/C=N/NC(=O)c3ccc(O)cc3)o2)c(OC)cc1-c1ccc2nccnc2c1` ?
Found: 65.4

Lookup: Fill in: inhibition at 20 µM of O=C(N/N=C/c1ccc([N+](=O)[O-])o1)c1ccc(O)cc1 [Nifuroxazide, nifuroxazide, reference compound] is ___
Found: 85.3
